Method Summary: blockers of RIG-like receptor reporter activation – cell-based, Sendai virus stimulus, luciferase, 10K MLSCN set, TLR/RLR signaling modifier project, primary screen (AID 602276);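 further: firefly luciferase from ISG56 promoter only with Renilla not read in this screen; 0% = Sendai virus plus DMSO and 100% = medium plus DMSO without virus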
Experimental Context: HEK293 RL24 IRF3 luciferase reporter, at 10 µM, stronger effect = higher value
Calls of active or inactive are those of the source.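 How the source made its calls: active means inhibition at or above 50% at 10 µM; inactive means inhibition below 50%.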
Would you kindly list inhibition for each of these molecules?

O=C(CSc1ncnc2nc[nH]c12)c1ccc(Cl)cc1 | -2.82% (inactive)
COc1ccc(CCNS(=O)(=O)c2ccc3oc(C(=O)O)c(C)c3c2)cc1OC | 12.5% (inactive)
COc1cc(C(=O)Nc2cccc(-c3nncn3C)c2)cc(OC)c1OC | 14.3% (inactive)
O=S(=O)(NCc1ccccc1)c1ccc2c(c1)OCCO2 | -0.346% (inactive)

Field: inhibition. Fill in for each record below.
1. Cc1ccc(CNC(=O)C2CCCN(S(=O)(=O)c3cnc[nH]3)C2)cc1 (stereo unspecified)
2. CCN(CC)S(=O)(=O)c1ccc2oc(C(=O)N3CCOCC3)c(C)c2c1
3. CCOc1ccc(C2CC(c3cccc(C)c3)n3ncnc3N2)cc1 (stereo unspecified)
4. Cc1cc(C)c(NC(=O)C2CSCCS2)c(C)c1 (stereo unspecified)
5. O=C(Nc1nnc(COc2ccc(F)cc2)s1)c1cccs1
6. CCCSc1nnc(-c2ccccc2NC(=O)CC)c(=O)[nH]1

["-2.34% (inactive)", "-1.83% (inactive)", "-8.73% (inactive)", "-3.4% (inactive)", "12.6% (inactive)", "4.4% (inactive)"]

So what does the record say about inhibition for CC1CCC2C(C1)c1sc(=O)[nH]c1SC2(C)C (stereo unspecified) ?
-1.58% (inactive)

====

Method Summary: reduction of polyQ htt aggregates in cells – imaging, exon1htt(103Q)mCFP cells, high-content imaging, primary screen (AID 483);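 further: compound exposure lasted 3 days before fixation; percent of the per-plate median nuclei count of sample wells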
Experimental Context: exon1htt(103Q)mCFP cell line, aggregate imaging, at 2 µM; measured here: cell count, toxicity
Endpoint Label: nuclei count (%)
Numbers only, in %.

O=C(C1CCCCC1)N1CCC(c2nc3c(nnn3Cc3c(F)cccc3Cl)c(=O)[nH]2)CC1 | 116
CC1(C)CC(=O)CC(=Nc2ccc(C(=O)O)cc2)C1 | 89.1
c1cc2c(cc1Nc1nc(-c3ccc4c(c3)OCO4)cs1)OCCO2 | 104

Here are 6 compounds. What values of nuclei count were reported for them?
1. CC(C)c1ccc(NC(=O)CCNS(=O)(=O)c2cccc3nonc23)cc1
2. COCCOC(=O)C1=C(C)NC(=O)CC1c1cc2c(cc1Br)OCO2 (stereo not drawn)
3. CN(C)CC(C(=O)c1ccccc1)c1ccccc1 (stereo not drawn)
4. O=C(Cn1ncc2c1-c1ccccc1OC2)N1CCN(c2ccccn2)CC1
5. COCCNS(=O)(=O)c1cc(F)ccc1OC
6. CCOc1ccc(Oc2nc(Nc3ccc(C)cc3)nc(N(C)C)n2)nn1

98
104
13.4
131
113
71.1

Provide each entry's nuclei count from the list below.
1. O=C(c1ccc(-c2ccccc2)cc1)N1CCN(c2ncccn2)CC1
2. O=C(c1ccco1)N(Cc1cc2ccccc2[nH]c1=O)C1CCCCC1

76
114

Please state nuclei count for every compound in the list that follows.
1. O=C(Nc1cnccn1)c1cccs1
2. CCc1c(C)nc2ncnn2c1NCCc1ccc(OC)c(OC)c1

122
95.4

I'm hoping you can list nuclei count for every compound here, please.
1. Cc1cnc(C(=O)OCC(=O)Nc2ccc(Cl)cc2Cl)cn1
2. CCOc1ccc(N(CC(=O)Nc2ccc(C)c(C)c2)S(=O)(=O)c2c(C)noc2C)cc1
3. CCc1nnc(NC(=O)CN2CCN(c3ccccc3OC)CC2)s1

[119, 86.1, 102]

====

Please respond with reported inhibition for every item in the list.
Method Summary: inhibitors of TNFa-induced NFkB p65 translocation, primary screen, imaging, HUVEC, MLSMR starter and 10KST1 sets (AID 438);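 further: compound added about 3h40 before a 20 min TNFalpha stimulation; signal is the nuclear over cytoplasmic p65 intensity ratio per well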
Experimental Context: HUVEC TNFa-induced p65 nuclear translocation; at 2 µM, stronger effect = higher value, 0% TNFa-plus-vehicle, 100% no-TNFa wells
Answers are plain numbers, in %.

# count of solved cases: 3
CCc1ccc(N2CC(C(=O)OCC(=O)Nc3cc(C)on3)CC2=O)cc1 (stereo unspecified) | 5.3
COCCCNC(=O)CSc1ccc(Cl)cc1 | -1.8
Cc1cccc2sc(NC(=O)CN(C)S(=O)(=O)c3cccs3)nc12 | -25.8

Would you be so kind as to report inhibition for each listed record?
1. c1ccc(-c2nnc(CSc3nncs3)o2)cc1
2. Cc1ccc(S(=O)(=O)Nc2nc3ccccc3nc2NCc2ccco2)cc1
3. Cc1ccc(-n2ncc3c(=O)[nH]c(SCC(=O)N4CCN(c5ccccc5)CC4)nc32)cc1
4. COc1ccc(C(=O)N2CCN(c3nc4cc(C)ccc4cc3C#N)CC2)c(OC)c1

[16.3, 7.1, -8.5, 7.6]

Respectfully, I request inhibition for each entry included below.
1. COc1cccc(S(=O)(=O)Nc2ccc(C(=O)N3CCN(C(=O)c4ccco4)CC3)cc2)c1
2. Cc1cc(N2CCOCC2)nc2ccc(NC(=O)C3CCC(C)CC3)cc12 (stereo unspecified)
3. Cn1c(=O)c(=O)n(C)c2cc(S(=O)(=O)CCC(=O)N3CCOCC3)ccc21
4. CCn1c(SCC(=O)c2ccc(C)cc2)nnc1-c1ccoc1C

[-3.9, -2.7, 0.9, -11.7]

====

System Name: Voltage-gated potassium channel subunit beta-2 (Rattus norvegicus) (UniProt P62483)
Sequence (P62483 whole entry, looked up): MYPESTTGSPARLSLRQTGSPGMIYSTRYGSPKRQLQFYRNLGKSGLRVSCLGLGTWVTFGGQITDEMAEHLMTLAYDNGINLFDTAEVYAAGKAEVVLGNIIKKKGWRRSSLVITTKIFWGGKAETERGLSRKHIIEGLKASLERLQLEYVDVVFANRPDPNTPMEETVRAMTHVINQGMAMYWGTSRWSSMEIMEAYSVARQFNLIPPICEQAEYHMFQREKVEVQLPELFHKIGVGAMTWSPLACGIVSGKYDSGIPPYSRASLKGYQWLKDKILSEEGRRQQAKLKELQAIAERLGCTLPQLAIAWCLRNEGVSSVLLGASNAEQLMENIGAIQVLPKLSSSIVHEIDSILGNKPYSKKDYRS
Method Summary: inhibitors of rat Kvbeta2 reductase activity – biochemical, NADPH fluorescence, primary screen (AID 622);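 further: slope of raw intensity against log time taken from 70 to 1610 s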
Experimental Context: recombinant KvBeta, 4-cyanobenzaldehyde reduction, at 10 µM, stronger effect = higher value
Activity calls are given as the source filed them.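 Rule for the calls: active = fluorescence slope higher than the sample average by over 3 SD (cut at about -0.22 in these data, passing the limit was not always enough); inactive = the rest.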
Endpoint Label: fluorescence slope

O=C(CSCCSCC(=O)c1ccco1)c1ccco1 | -0.421 (inactive)

# batch: return fluorescence slope for each of the 5 compounds below
1. C/C(=N\O)C(=O)NCc1ccccn1
2. CCOC(=O)c1cc2c(=O)n3ccccc3nc2n(CC(C)C)c1=NC(=O)c1ccco1
3. COc1cc(CN2CCN(C(=O)CC(C)C)CC2)cc(OC)c1O
4. CN(c1ccccc1)S(=O)(=O)c1ccc(C(=O)OCC(=O)N2CCOCC2)cc1
5. CCCC(=O)Nc1nnc(Sc2ccc(N(C)C)cc2)s1

1. -0.431 (inactive)
2. -0.532 (inactive)
3. -0.583 (inactive)
4. -0.583 (inactive)
5. -0.466 (inactive)

====

Method Summary: endothelial E-selectin expression blockers – imaging, HUVEC, immunofluorescence, MLSMR starter and 10KST1 sets, primary screen (AID 487);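 further: signal is fraction of cell area covered by stained E-selectin grains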
Experimental Context: HUVEC TNFalpha-induced E-selectin immunofluorescence imaging, at 2 µM
Active and inactive are the calls of the source.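 Rule for the calls: active = visually confirmed hit in the image check and inhibition above 20%; inconclusive = visually confirmed hit but inhibition not above 20%; inactive = no visual hit in the image check.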
Assign a class; possible classes are true (active), false (inactive)

COC(=O)[C@H](C)NC(=O)Nc1cccc(C(F)(F)F)c1 | false
CCCCCn1c(CN2CCN(c3cccc(Cl)c3)CC2)nc2c1c(=O)n(C)c(=O)n2C | false
COC(=O)Cn1c(=O)c2c(nc3n2CC(C)CN3c2ccc(C)c(C)c2)n(C)c1=O (stereo not given) | false

Which outcome was entered for the molecule "Cc1cc(C)n(-c2nc3sc4c(c3c3nnc(SC(C)C)n23)CC(C)(C)OC4)n1" in this test?
false

Per the records of this test, what outcome belongs to COc1ccc(C2CC(c3cccc(C)c3)n3ncnc3N2)cc1 (stereo not given) ?
false

Hi, sorry to bother you, what did the test record for "O=C(CCn1c(=S)[nH]c2cc3c(cc2c1=O)OCO3)N1CCN(C2CCCCC2)CC1" ?
false

How did this test come out for "CC(=O)c1ccc(OC(=O)c2cccs2)cc1" ?
false

Test call, this molecule: "CN1CCN(C(=O)C2CCN(S(=O)(=O)c3ccc4c(c3)oc(=O)n4C)CC2)CC1"
false

Assay result, entry "CCCS(=O)(=O)N1CCN(Cc2ccc(OCc3ccccc3)c(OC)c2)CC1" — outcome?
false

# fetch the recorded call for C=CCn1c(SCC(=O)c2cc(C)n(C(C)COC)c2C)nc2sc(C)c(C)c2c1=O (stereo not given) here
false

Can you look up the reported call for CCc1ccc(N2CC(C(=O)OCC(=O)Nc3cc(C)on3)CC2=O)cc1 (stereo not given) for me?
false

====

Method Summary: reduction of polyQ htt aggregates in cells – imaging, exon1htt(103Q)mCFP cells, high-content imaging, primary screen (AID 483);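 further: compound exposure lasted 3 days before fixation; percent of the per-plate median nuclei count of sample wells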
Experimental Context: exon1htt(103Q)mCFP cell line, aggregate imaging, at 2 µM; measured here: cell count, toxicity
Endpoint Label: nuclei count (%)
One number for each entry, in %.

Here is how some compounds turned out for nuclei count.
Cc1cccc(C2CC(c3ccc(Cl)cc3)Nc3nc(N)nn32)c1 (stereo unspecified) | 58.9
COC(=O)c1ccc(NC(=O)C(C)N2C(=O)c3ccccc3C2=O)cc1 (stereo unspecified) | 103
CC1Cc2nc(SCC(=O)Nc3ccccc3F)n(C)c(=O)c2S1 (stereo unspecified) | 98.4

Each of the following entries comes with a recorded value; kindly state nuclei count for each.
1. Cn1c(SCC(=O)N2CCN(c3cccc(Cl)c3)CC2)nnc1-c1ccncc1
2. Cc1nnc(SCC(=O)N2c3ccccc3CC2C)s1 (stereo unspecified)
3. CN(C(=O)c1ccco1)c1nnc(C23CC4CC(CC(C4)C2)C3)s1
4. Cc1ccc2nc(-c3ccc4c(c3)OCCO4)cc(C(=O)O)c2c1
5. CCOC(=O)c1ccc(N=c2sc(C(=O)OC)cc(=O)n2Cc2ccco2)cc1
6. CCOc1cc(CN2CCN(C(=O)c3ccco3)CC2)ccc1OC

1. 104
2. 55.7
3. 110
4. 111
5. 107
6. 88.9

The following compounds each have a reported value; give each one's nuclei count.
1. CCCC(=O)Nc1cccc(NC(=O)CN2CCN(c3ccccc3OC)CC2)c1
2. Cc1cccc(-c2nnn(CC/C(N)=N/O)n2)c1

[98.8, 84.2]
